# System: ChaGo-K-1
# method: Cell panel screen (CellTiter-Glo)
# Type: cell-based, human
# condition.details: Homo sapiens; ChaGo-K-1 (Lung), 20 micromolar, 72 hrs; read-out: Percent Inhibition
# Experimental: All cells were obtained from the cell bank of the American Type Culture Collection (ATCC) and cultured in the supplier's recommended media supplemented with 10% FBS. The cell panel screen was measured using the CellTiter-Glo assay (Promega, Madison, WI) following a standard protocol. […] The plate was then read on a FlexStation 3 microplate luminometer (Molecular Devices, USA) to monitor the luminescence signal generated by the luciferase-catalyzed reaction of luciferin and ATP. […]
Answer each item with its documented inhibition at 20 µM.
Give bare numbers, in %.

CC(C)=CCc1c(O)cc2oc3c(CC=C(C)C)c(O)c(O)c(CC=C(C)C)c3c(=O)c2c1O [bn-1, Garcinone E]
99
CC(C)=CCC[C@@]1(C)C=Cc2c(O)c3c(c(CCC(C)(C)O)c2O1)O[C@]12C(=C[C@@H]4C[C@H]1C(C)(C)O[C@@]2(C/C=C(/C)C(=O)O)C4=O)C3=O [GB39, 33-hydroxyepigambogic acid]
100
CC(C)=CCC[C@@]1(C)C=Cc2c(O)c3c(c(C/C=C(\C)CO)c2O1)O[C@]12C(=C[C@@H]4C[C@H]1C(C)(C)O[C@@]2(C/C=C(/C)C(=O)O)C4=O)C3=O [GB40, 35-hydroxyepigambogic acid]
98
CC(C)=CCC/C(C)=C/Cc1c(O)c(CC=C(C)C)c2c(c1O)C(=O)C1=C[C@@H]3C[C@H]4C(C)(C)O[C@@](C/C=C(\C)C(=O)O)(C3=O)[C@@]14O2 [GB63]
100

Shifting focus to the compound that follows.
Prompt line: Please give the measured inhibition at 20 µM for this compound: CC(C)=CCC/C(C)=C/Cc1c(O)c(CC=C(C)C)c2c(c1O)C(=O)C1=C[C@@H]3C[C@H]4C(C)(C)O[C@@](C/C=C(\C)C=O)(C3=O)[C@@]14O2 [GB49]
Response line: 99

Data provenance is paper PMC4450297.
